test system: CAPAN-1; experiment: Antiproliferative activity against BRCA2-deficient human CAPAN-1 cells assessed as inhibition of cell proliferation incubated for 7 days by CellTiter-Glo assay; assay type: functional, cell-based; settings: CAPAN-1, 168 h
pIC50: −log10 of the molar value.
Below: a set of entries, each annotated with reported pIC50.
reportedEndpoint: pIC50

C[C@H]1CCC[C@]2(C)CC3OC(=O)C(CNCCCCCCCC(=O)N4CCN(C(=O)c5cc(Cc6n[nH]c(=O)c7ccccc67)ccc5F)CC4)C3C=C12 (stereo not given in full) :: 6.06
O=C(c1cc(Cc2n[nH]c(=O)c3ccccc23)ccc1F)N1CCN(C(=O)C2CC2)CC1 [OLAPARIB] :: 6.28
C[C@]12CCC=C(CO)C1=CC1C(C2)OC(=O)C1CNCCOCCOCC(=O)N1CCN(C(=O)c2cc(Cc3n[nH]c(=O)c4ccccc34)ccc2F)CC1 (stereo not given in full) :: 6.12
C[C@H]1CCC[C@]2(C)CC3OC(=O)C(CNCCCC(=O)N4CCN(C(=O)c5cc(Cc6n[nH]c(=O)c7ccccc67)ccc5F)CC4)C3C=C12 (stereo not given in full) :: 6.00
C=C1C(=O)OC2C[C@@]3(C)CCC=C(COC(=O)CCN(C)C(=O)c4cc(Cc5n[nH]c(=O)c6ccccc56)ccc4F)C3=CC12 (stereo not given in full) :: 5.89

* * *

assay: Cytotoxicity against human WI-38 cells expressing wild type BRCA1 assessed as inhibition of cell proliferation incubated for 7 days by SRB assay; type: toxicity, cell-based
Below: a set of entries, each annotated with reported IC50 at 7 days.
reportedEndpoint: IC50 at 7 days

C[C@H]1CCC[C@]2(C)CC3OC(=O)C(CNCCCCCCCC(=O)N4CCN(C(=O)c5cc(Cc6n[nH]c(=O)c7ccccc67)ccc5F)CC4)C3C=C12 (some centres not stated) :: 11.8 µM
C[C@]12CCC=C(CO)C1=CC1C(C2)OC(=O)C1CNCCOCCOCC(=O)N1CCN(C(=O)c2cc(Cc3n[nH]c(=O)c4ccccc34)ccc2F)CC1 (some centres not stated) :: 12 µM

* * *

target: Poly [ADP-ribose] polymerase 1 (Homo sapiens, UniProt P09874); experiment: Inhibition of human recombinant PARP1 in presence of NAD+ by ELISA
Sequence (P09874 whole entry): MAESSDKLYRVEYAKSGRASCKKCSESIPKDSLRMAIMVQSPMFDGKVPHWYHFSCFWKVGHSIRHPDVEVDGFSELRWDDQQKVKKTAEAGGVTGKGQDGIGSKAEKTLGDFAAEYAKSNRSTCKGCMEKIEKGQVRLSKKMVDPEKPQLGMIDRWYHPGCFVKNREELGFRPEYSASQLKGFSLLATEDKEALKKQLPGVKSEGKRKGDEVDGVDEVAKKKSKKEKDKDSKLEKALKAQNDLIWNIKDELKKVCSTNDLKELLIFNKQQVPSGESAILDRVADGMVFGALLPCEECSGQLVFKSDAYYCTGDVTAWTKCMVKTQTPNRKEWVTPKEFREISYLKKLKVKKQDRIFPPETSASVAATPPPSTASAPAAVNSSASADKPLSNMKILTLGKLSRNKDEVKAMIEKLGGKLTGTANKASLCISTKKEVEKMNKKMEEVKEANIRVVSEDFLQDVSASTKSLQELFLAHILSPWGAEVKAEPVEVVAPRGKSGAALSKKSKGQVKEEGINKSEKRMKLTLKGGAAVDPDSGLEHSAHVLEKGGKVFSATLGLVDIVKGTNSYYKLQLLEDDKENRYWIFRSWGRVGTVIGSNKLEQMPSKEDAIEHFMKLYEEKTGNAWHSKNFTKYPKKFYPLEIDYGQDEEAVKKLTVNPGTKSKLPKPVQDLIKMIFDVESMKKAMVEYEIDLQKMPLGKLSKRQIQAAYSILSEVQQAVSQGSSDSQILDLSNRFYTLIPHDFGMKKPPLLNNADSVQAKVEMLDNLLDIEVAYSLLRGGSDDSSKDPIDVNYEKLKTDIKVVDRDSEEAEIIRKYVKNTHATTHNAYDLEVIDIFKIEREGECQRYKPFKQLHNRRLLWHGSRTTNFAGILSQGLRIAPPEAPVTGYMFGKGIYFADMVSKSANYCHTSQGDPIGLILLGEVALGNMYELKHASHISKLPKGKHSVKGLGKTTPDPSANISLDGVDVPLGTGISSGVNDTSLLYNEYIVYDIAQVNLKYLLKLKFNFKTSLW
pIC50: −log10 of the molar value.
Label scheme for pIC50: lower than 7 is 0, 7 and above is 1.

C[C@]12CCC=C(CO)C1=CC1C(C2)OC(=O)C1CNCCCCCCCC(=O)N1CCN(C(=O)c2cc(Cc3n[nH]c(=O)c4ccccc34)ccc2F)CC1 (some centres not stated) :: 0
C=C1C(=O)O[C@@H]2C[C@@]3(C)CCC[C@H](C)C3=C[C@H]12 [HELENINE] :: 0
C[C@H]1CCC[C@]2(C)CC3OC(=O)C(CN(C)CCC(=O)N4CCN(C(=O)c5cc(Cc6n[nH]c(=O)c7ccccc67)ccc5F)CC4)C3C=C12 (some centres not stated) :: 1
C=C1C(=O)OC2C[C@@]3(C)CCC=C(CN4CCN(C(=O)c5cc(Cc6n[nH]c(=O)c7ccccc67)ccc5F)CC4)C3=CC12 (some centres not stated) :: 0
C=C1C(=O)OC2C[C@@]3(C)CCC=C(COC(=O)COCCOCCNC(=O)c4cc(Cc5n[nH]c(=O)c6ccccc56)ccc4F)C3=CC12 (some centres not stated) :: 1
C[C@H]1CCC[C@]2(C)CC3OC(=O)C(CNCC(=O)N4CCN(C(=O)c5cc(Cc6n[nH]c(=O)c7ccccc67)ccc5F)CC4)C3C=C12 (some centres not stated) :: 1
C=C1C(=O)OC2C[C@@]3(C)CCC=C(COC(=O)CCN(C)C(=O)c4cc(Cc5n[nH]c(=O)c6ccccc56)ccc4F)C3=CC12 (some centres not stated) :: 1
C[C@H]1CCC[C@]2(C)CC3OC(=O)C(CNCCC(=O)N4CCN(C(=O)c5cc(Cc6n[nH]c(=O)c7ccccc67)ccc5F)CC4)C3C=C12 (some centres not stated) :: 1

The measurements presented in this section are drawn from ChEMBL document CHEMBL5113471.
